assayProtocol: small-molecule microarray binders of probe aNog, primary screen, biochemical, biotinylated probe, 635/667 nm fluorescence (AID 1115);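 also: probe is biotinylated aNog protein used at 0.15 µg/mL for 1 h at 4 C; z-score combines 667 nm fluorescence of each spot with its signal to noise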
conditionInfo: higher = more signal
propertyMeasured: composite z-score

>>> measvalue("C=CCN1C(=O)[C@]2(O[C@H](CCO)[C@@H]([Si](C)(C)c3ccc(OC)cc3)[C@@H]2C)c2cc(N3C(=O)c4cccc5cccc3c45)ccc21")
-0.338
>>> measvalue("C=C[C@H](COC(C)=O)N(C(=O)OC(C)(C)C)S(=O)(=O)c1ccc(Br)cc1")
-0.0185
>>> measvalue("O=C1c2ccccc2[C@@]2(Cc3ccccc3N(CCN3CCOCC3)C2=O)[C@H](c2ccc(CO)cc2)N1Cc1ccccc1")
-0.5
>>> measvalue("COCCOC(=O)N1C(=O)[C@@]2(c3cc(C#CC4=CCCCC4)ccc31)[C@H](C(N)=O)[C@H]1C(=O)O[C@H](c3ccccc3)[C@H](c3ccccc3)N1[C@@H]2c1ccc(OCCO)cc1")
0.299
>>> measvalue("CCN(CC)c1ccc(N2CC=CC34O[C@@H]5/C=C\\CCCOC(=O)C5[C@H]3C(=O)N(CCO)[C@@H]4C2=O)cc1 (stereo partly specified)")
-0.406
>>> measvalue("C=CCNC(=O)[C@H]1[C@@H]2C(=O)O[C@@H](c3ccccc3)[C@@H](c3ccccc3)N2[C@@H](c2ccccc2OCCO)[C@]12C(=O)Nc1ccc(C#CC3=CCCCC3)cc12")
0.163

---

assayProtocol: S. cerevisiae RM11-1a growth modifiers, primary screen, strain RM11-1a, OD600, basal, 24 h (AID 1177);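 also: cultures grown under basal conditions with no added stressor; test concentration not given here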
conditionInfo: OD600, 24 h, higher = more signal, called active from +8 up or from −8 down
z-score for assorted molecules
propertyMeasured: z-score

>>> measvalue("COc1cc2c(cc1O)C(C1CC1)N(Cc1cc3c(cc1Br)OCO3)CC2 (centres undefined)")
0.698
>>> measvalue("O=C(NCc1ccccc1)[C@@]1(Cc2ccccc2)N=C(c2ccc(OCCCO)cc2)O[C@H]1c1ccccc1")
1.7
>>> measvalue("CN(C)CCCNC(=O)[C@@]1(c2ccc([N+](=O)[O-])cc2)CC(=O)N(C2CCCCC2)[C@@H]1c1ccc(CO)cc1I")
0.344
>>> measvalue("COCCOC(=O)N1C(=O)[C@@]2(c3cc(C#CC4=CCCCC4)ccc31)[C@H](c1ccc(O)cc1)N1[C@H](c3ccccc3)[C@H](c3ccccc3)OC(=O)[C@H]1[C@@H]2C(N)=O")
0.654

---

composite z-score for assorted molecules
assayedTarget: Albumin (Bos taurus) (UniProt P02769)
Sequence (P02769 whole entry, looked up): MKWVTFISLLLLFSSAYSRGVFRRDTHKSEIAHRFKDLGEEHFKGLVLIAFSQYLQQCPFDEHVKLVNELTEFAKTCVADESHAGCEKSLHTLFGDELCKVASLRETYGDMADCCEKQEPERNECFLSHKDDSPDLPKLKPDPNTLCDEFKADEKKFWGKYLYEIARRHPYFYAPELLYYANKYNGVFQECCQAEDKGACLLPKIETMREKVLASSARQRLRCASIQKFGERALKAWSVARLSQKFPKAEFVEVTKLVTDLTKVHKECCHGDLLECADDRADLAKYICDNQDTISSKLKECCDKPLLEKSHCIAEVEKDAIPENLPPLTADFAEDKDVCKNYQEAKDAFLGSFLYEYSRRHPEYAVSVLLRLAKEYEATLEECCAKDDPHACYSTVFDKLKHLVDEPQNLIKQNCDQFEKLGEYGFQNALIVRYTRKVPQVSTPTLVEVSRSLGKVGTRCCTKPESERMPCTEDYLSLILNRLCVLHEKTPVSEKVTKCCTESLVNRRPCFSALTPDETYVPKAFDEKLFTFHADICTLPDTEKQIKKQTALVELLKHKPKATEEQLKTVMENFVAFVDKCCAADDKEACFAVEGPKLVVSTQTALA
assayProtocol: bovine serum albumin binders on microarray, profiling panel, artefact control for SMM control protein annotation, biochemical, small-molecule microarray, Alexa647 label, 635/667 nm fluorescence (AID 1118);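 also: score merges 667 nm emission intensity and signal-to-noise per printed compound spot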
conditionInfo: BSA-A647 binding, fluorescence 635 nm, higher = more signal
propertyMeasured: composite z-score

>>> measvalue("CC1CC/C=C\\[C@H]2OC34C=CCN(Cn5nnc6ccccc65)C(=O)[C@H]3N(C(CO)C(C)C)C(=O)[C@@H]4C2C(=O)O1 (some centres undefined)")
0.568
>>> measvalue("COC(=O)[C@@]1(Cc2ccccc2)[C@H]2c3cc(C(=O)N4CCCC4)n(CC4CC4)c3C[C@H]2CN1C(=O)c1ccccc1")
0.946
>>> measvalue("C[C@@H]1ON(c2cccc(C(=O)OC(C)(C)C)c2)[C@H](c2ccc(Br)cc2)[C@H]1C(=O)N1C(=O)OC[C@H]1Cc1ccccc1")
0.0512
>>> measvalue("COC(=O)[C@@]1(Cc2ccc(OC)cc2)[C@H]2c3cc(C(=O)N(C)C)n(Cc4cccc5ccccc45)c3C[C@H]2CN1C(=O)c1ccccc1")
1.02

---

assayProtocol: E. coli DRC41 culture turbidity changes, primary screen, E. coli filamentation inducer project, strain DRC41, OD650, 48 h (AID 1152);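 also: E. coli MC1000 strain DRC41 lacking acrAB efflux pump and sulA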
conditionInfo: E. coli DRC41 (acrAB sulA), higher = more signal, called active from +8 up or from −8 down
Please enter Fulfilled where z-score is greater than or equal to -0.5, and Not fulfilled where it is lower.

>>> labelvalue("CCCCN1CC=CC23O[C@@H]4/C=C\\CCC(C)OC(=O)C4[C@H]2C(=O)N(CCCCCO)[C@@H]3C1=O (some centres undefined)")
"Fulfilled"
>>> labelvalue("COC(=O)[C@@]1(Cc2ccc(OC)cc2)[C@H]2c3cc(C(=O)N4CCCC4)n(Cc4ccc(OC)c(OC)c4)c3C[C@H]2CN1C(=O)c1ccccc1")
"Not fulfilled"
>>> labelvalue("[N-]=[N+]=NCc1ccccc1[C@H]1OC(c2ccc(OCCCO)cc2)=N[C@@]1(Cc1ccccc1)C(=O)NCc1ccccc1")
"Fulfilled"
>>> labelvalue("CO[C@H]1O[C@H](CO)[C@@H](OC(=O)Nc2ccc(Br)cc2)[C@H](OC(=O)c2cc3ccccc3[nH]2)[C@H]1OC(=O)c1cc2ccccc2[nH]1")
"Fulfilled"
>>> labelvalue("C=CCN1C(=O)[C@]2(O[C@H](CCO)[C@@H]([Si](C)(C)c3ccc(OC)cc3)[C@@H]2C)c2cc(N3C(=O)c4cccc5cccc3c45)ccc21")
"Fulfilled"
>>> labelvalue("CC(C)C[C@@H]1NC(=O)[C@H]2C[C@@H](C(=O)NCCCCCCN(C)C)[C@@H](c3ccc(O)cc3)N2C1=O")
"Not fulfilled"
>>> labelvalue("COc1cc2c(cc1O)C(C1CC1)N(Cc1cc3c(cc1Br)OCO3)CC2 (centres undefined)")
"Not fulfilled"
>>> labelvalue("O=C1O[C@H](c2ccccc2)[C@H](c2ccccc2)N2[C@H]1[C@@H](C(=O)Nc1nc3ccccc3s1)[C@]1(C(=O)Nc3ccc(C#CC4(O)CCCCCC4)cc31)[C@H]2c1ccc(OCCO)cc1")
"Not fulfilled"
>>> labelvalue("CC(C)(C)OC(=O)CC[C@@]1(C(=O)NCCN2CCOCC2)N=C(c2ccc(OCCCO)cc2)O[C@@H]1c1ccccc1N=[N+]=[N-]")
"Fulfilled"
>>> labelvalue("C=CC[C@@]1(C(=O)N(C)C)N=C(c2ccc(OCCCO)cc2)O[C@@H]1c1ccccc1N=[N+]=[N-]")
"Fulfilled"
>>> labelvalue("COCCOC(=O)N1C(=O)[C@@]2(c3ccccc31)[C@H](c1ccc(O)cc1)N1[C@H](c3ccccc3)[C@H](c3ccccc3)OC(=O)[C@H]1[C@@H]2C(=O)NC[C@H](O)c1ccccc1")
"Fulfilled"
>>> labelvalue("COc1ccc(C(O)C2C=CC3C(=O)N(C)C(=O)C3N2N2CCCCC2)c2ccccc12 (centres undefined)")
"Not fulfilled"
>>> labelvalue("Cc1ccc(S[C@]2(C(=O)NCC(C)C)CC(=O)N(Cc3cc(C(F)(F)F)cc(C(F)(F)F)c3)[C@@H]2c2ccc(CO)cc2I)cc1")
"Fulfilled"

---

z-score for assorted compounds
assayProtocol: A549 cell viability effects, profiling panel, calcein-AM fluorescence, 48 h, basal (AID 1162); also: test concentration not given here
conditionInfo: higher = more signal
propertyMeasured: z-score

>>> measvalue("CCOC(=O)C[C@H]1[C@H](OC(=O)c2cc3ccccc3oc2=O)[C@@H](NC(=O)Cc2ccc(OC)cc2)c2cc(OCCCO)ccc2N1C(=O)c1ccccc1")
-0.172
>>> measvalue("C#CCN(CC=C(C)C)[C@H](CO)c1ccccc1")
-0.589
>>> measvalue("CN1C(=O)C2C=CC(C(O)C3CC=CCC3)N(NC(=O)OC(C)(C)C)C2C1=O (stereo not drawn)")
0.414
>>> measvalue("COc1ccc(CCNC(=O)[C@@H]2c3ccccc3C(=O)N(C3Cc4ccccc4C3)[C@H]2c2ccc(CO)cc2)cc1")
0.595
>>> measvalue("COC(=O)C(CC#Cc1ccc2c(c1)[C@]1(C(=O)N2)[C@H](C(=O)O)[C@H]2C(=O)O[C@H](c3ccccc3)[C@H](c3ccccc3)N2[C@@H]1c1ccc(O)cc1)C(=O)OC")
-0.389
>>> measvalue("COCCCNC(=O)[C@@]1(Cc2ccccc2)N=C(c2ccc(OCCCO)cc2)O[C@H]1c1ccccc1")
-0.736
>>> measvalue("CC1CC/C=C\\[C@H]2OC34C=CCN(c5ccc(Cl)cc5)C(=O)[C@H]3N(CCO)C(=O)[C@]4(C)C2C(=O)O1 (stereo partly drawn)")
-0.562
>>> measvalue("CC[C@@H]1C=C(C(=O)O)[C@H](c2ccco2)N1S(=O)(=O)c1ccc(C)cc1")
-0.364
>>> measvalue("CC(=O)NCCCC[C@@H]1NC(=O)[C@@H]2C[C@H](C(=O)NCCCCN(C)C)[C@H](c3cccc(OCCO)c3)N2C1=O")
0.0857
>>> measvalue("CCOC(=O)C=Cc1cc([N+](=O)[O-])ccc1O")
-0.563
>>> measvalue("CN1C(=O)C2C=CC(C(O)c3cccs3)N(Nc3ccccc3)C2C1=O (stereo not drawn)")
-0.439
>>> measvalue("O=C1O[C@H](c2ccccc2)[C@H](c2ccccc2)N2[C@H]1[C@@H](C(=O)O)[C@]1(C(=O)Nc3ccc(C#CC4=CCCCC4)cc31)[C@H]2c1ccccc1OCCO")
-0.986
>>> measvalue("CC(C)(C)C(=O)N[C@@H](c1ccc(Cl)cc1)[C@]1(C)C[C@H]1C1CCCCC1")
-1.07
>>> measvalue("CC(C)(C)OC(=O)CC[C@@]1(C(=O)NCC(O)CO)N=C(c2ccc(OCCCO)cc2)O[C@@H]1c1ccccc1N=[N+]=[N-] (stereo partly drawn)")
1.79
>>> measvalue("CN1C(=O)C2C=CC(C(O)C3=C[C@H]4C[C@@H](C3)C4(C)C)N(Nc3ccccc3)C2C1=O (stereo partly drawn)")
-0.456
>>> measvalue("COCC(=C=CC[C@H](O)c1ccccc1OCCO)C[C@H](O)c1cc(Cl)cc(Cl)c1O")
-2.79
>>> measvalue("Cc1ccc(S[C@]2(C(=O)NCC(C)C)CC(=O)N(Cc3cc(C(F)(F)F)cc(C(F)(F)F)c3)[C@@H]2c2ccc(CO)cc2I)cc1")
-0.431
>>> measvalue("CC(C)c1ccc(NN2C(C(O)c3cc(C(F)(F)F)cc(C(F)(F)F)c3)C=CC3C(=O)N(c4ccccc4)C(=O)C32)cc1 (stereo not drawn)")
-2.37
